- assayedTarget: ENaC (Epithelial Sodium Channel) (Mus musculus, UniProt Q61180+Q9WU38+Q9WU39)
- Construct: Mouse kidney M−1 cells were cultivated in DMEM; endogenous in cells; host or cells: Mouse kidney M-1 cells, cultivated with dexamethasone on transwell filters
- Sequence (Q61180 whole entry): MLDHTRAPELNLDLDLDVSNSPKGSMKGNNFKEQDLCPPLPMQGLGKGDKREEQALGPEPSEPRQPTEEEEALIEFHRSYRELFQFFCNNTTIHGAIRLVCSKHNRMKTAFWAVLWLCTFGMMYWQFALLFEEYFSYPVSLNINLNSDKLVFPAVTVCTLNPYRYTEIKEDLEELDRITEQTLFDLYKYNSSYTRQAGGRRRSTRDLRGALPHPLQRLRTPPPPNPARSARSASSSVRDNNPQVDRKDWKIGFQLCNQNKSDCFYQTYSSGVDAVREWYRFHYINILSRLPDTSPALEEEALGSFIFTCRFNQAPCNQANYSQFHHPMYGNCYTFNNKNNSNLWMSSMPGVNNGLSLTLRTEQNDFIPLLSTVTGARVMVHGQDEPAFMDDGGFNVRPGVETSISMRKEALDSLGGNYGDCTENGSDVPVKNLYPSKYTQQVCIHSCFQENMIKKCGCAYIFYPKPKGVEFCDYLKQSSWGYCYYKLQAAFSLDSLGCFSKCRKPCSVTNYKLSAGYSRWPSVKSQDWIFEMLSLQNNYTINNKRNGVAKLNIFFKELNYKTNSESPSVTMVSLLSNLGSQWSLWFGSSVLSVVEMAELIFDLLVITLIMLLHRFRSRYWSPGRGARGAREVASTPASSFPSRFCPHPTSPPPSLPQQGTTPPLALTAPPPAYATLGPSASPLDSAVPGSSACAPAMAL
- Sequence (Q9WU38 whole entry): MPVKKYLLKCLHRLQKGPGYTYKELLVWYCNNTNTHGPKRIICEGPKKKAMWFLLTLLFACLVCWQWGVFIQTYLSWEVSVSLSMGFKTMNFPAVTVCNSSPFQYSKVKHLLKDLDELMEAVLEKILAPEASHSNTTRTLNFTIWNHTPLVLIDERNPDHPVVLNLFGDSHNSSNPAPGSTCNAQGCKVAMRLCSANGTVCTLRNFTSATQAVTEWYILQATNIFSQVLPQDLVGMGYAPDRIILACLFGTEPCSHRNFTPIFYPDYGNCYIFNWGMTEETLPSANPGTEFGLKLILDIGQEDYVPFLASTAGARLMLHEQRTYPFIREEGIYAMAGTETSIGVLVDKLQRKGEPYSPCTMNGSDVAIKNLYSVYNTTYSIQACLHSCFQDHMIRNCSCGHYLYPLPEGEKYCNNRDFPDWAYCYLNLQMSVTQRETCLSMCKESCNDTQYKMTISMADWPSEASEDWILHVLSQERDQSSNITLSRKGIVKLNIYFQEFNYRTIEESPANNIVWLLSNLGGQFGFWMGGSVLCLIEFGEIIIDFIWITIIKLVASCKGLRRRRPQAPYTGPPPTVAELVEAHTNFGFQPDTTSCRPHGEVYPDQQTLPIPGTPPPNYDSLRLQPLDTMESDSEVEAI
- Sequence (Q9WU39 whole entry): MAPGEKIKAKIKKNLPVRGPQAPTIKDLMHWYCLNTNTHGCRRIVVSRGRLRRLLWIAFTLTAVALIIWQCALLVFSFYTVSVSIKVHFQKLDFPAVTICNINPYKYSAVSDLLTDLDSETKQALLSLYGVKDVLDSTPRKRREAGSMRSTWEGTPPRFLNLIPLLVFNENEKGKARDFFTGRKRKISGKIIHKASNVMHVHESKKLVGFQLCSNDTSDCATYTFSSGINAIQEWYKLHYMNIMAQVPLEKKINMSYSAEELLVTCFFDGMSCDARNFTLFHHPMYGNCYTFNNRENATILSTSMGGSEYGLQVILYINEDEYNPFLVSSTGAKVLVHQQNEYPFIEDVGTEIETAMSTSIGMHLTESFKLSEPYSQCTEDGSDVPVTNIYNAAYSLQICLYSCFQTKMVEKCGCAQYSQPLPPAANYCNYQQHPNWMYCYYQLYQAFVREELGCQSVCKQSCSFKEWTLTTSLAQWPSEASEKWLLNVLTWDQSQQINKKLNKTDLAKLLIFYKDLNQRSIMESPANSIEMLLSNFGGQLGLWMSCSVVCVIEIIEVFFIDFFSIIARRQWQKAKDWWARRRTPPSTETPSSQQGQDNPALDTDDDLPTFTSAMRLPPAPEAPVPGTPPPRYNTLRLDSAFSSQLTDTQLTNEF
- assayMethodText: Ussing Chamber assay (short circuit current, amiloride sensitive I_SC)
- Type: cell-based
- experimentalContext: Ussing chamber, mouse kidney M-1 cells, short circuit current, compound added to the apical solution; read-out: IC50
reportedProperty: IC50 (nM)

1) COc1ccc(CCC[N+]2(CCCc3ccc(C(N)=O)cc3)CCCC(NC(=O)c3nc(Cl)c(N)nc3N)C2)cc1 (centres unmarked) [Example 5.6]	25
2) CS(=O)(=O)CCCNC(=O)COc1ccc(CCC[N+]2(CCCc3ccc(OCC(=O)NCCCS(C)(=O)=O)cc3)CCC[C@H](NC(=O)c3nc(Cl)c(N)nc3N)C2)cc1 [Example 6.43]	64
3) Nc1nc(N)c(C(=O)N[C@H]2CCC[N+](CCCc3ccc(OCC(=O)N4CCC(O)(CO)CC4)cc3)(CCCc3ccc(OCC(=O)N4CCC(O)(CO)CC4)cc3)C2)nc1Cl [Example 6.36]	67
4) COc1ccc(CCC[N+]2(CCCc3ccc(OC)cc3)CCC(NC(=O)c3nc(Cl)c(N)nc3N)C2)cc1 (centres unmarked) [Example 1.1]	30
5) COCCN(C)C(=O)COc1ccc(CCC[N+]2(CCCc3ccc(OCC(=O)N(C)CCOC)cc3)CCC[C@H](NC(=O)c3nc(Cl)c(N)nc3N)C2)cc1 [Example 6.16]	42

(P) N#Cc1ccc(CCC[N+]2(CCCc3ccc(C#N)cc3)CCC[C@H](NC(=O)c3nc(Cl)c(N)nc3N)C2)cc1 [Example 10.8]
(Q) Cn1ccnc1CNC(=O)COc1ccc(CCC[N+]2(CCCc3ccc(OCC(=O)NCc4nccn4C)cc3)CCC[C@H](NC(=O)c3nc(Cl)c(N)nc3N)C2)cc1 [Example 6.33]
Request: Lab note: check whether P or Q has the lower measured IC50. Please identify the chosen entry by its label.
Response: Q
(Q: 21 nM, P: 34 nM)

(I) CN(C)CCCNC(=O)COc1ccc(CCC[N+]2(CCCc3ccc(OCC(=O)NCCCN(C)C)cc3)CCCC(NC(=O)c3nc(Cl)c(N)nc3N)C2)cc1 (centres unmarked) [Example 6.7]
(II) CN(C)CCN(C)C(=O)COc1ccc(CCC[N+]2(CCCc3ccc(OCC(=O)N(C)CCN(C)C)cc3)CCCC(NC(=O)c3nc(Cl)c(N)nc3N)C2)cc1 (centres unmarked) [Example 6.9]
Request: So which one has the bigger IC50 here, I or II ? Response format: the label of the selected entry.
Response: II
